experimental-system: full-length activated BTK mutant C481S (Homo sapiens (Human), UniProt Q06187, C481S)
Sequence (Q06187 whole entry C481S): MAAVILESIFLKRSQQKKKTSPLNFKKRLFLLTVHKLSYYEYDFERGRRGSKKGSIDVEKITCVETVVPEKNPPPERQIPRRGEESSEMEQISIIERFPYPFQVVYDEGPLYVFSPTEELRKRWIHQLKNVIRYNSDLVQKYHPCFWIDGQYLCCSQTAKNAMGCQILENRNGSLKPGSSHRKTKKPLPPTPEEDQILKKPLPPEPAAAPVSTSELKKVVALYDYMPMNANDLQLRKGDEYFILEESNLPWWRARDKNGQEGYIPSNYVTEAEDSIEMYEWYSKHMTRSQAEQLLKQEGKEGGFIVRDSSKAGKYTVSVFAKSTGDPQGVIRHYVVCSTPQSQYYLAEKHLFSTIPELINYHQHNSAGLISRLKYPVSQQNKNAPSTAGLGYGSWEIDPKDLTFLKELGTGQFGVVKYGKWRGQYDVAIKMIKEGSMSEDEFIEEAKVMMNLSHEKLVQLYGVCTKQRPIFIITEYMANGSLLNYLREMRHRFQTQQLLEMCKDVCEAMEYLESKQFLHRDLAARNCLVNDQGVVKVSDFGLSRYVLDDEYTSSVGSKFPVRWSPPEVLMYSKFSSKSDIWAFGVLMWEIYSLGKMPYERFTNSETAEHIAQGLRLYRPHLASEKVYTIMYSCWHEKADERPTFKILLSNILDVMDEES
assay-notes: AlphaScreen assay, BTK mutant C481S
Type: biochemical
experimental-readout: IC50 (µM)

For orientation, consider the following solved cases.
1. O=C(c1ccc(Oc2ccccc2)cc1Cl)c1c[nH]c2ncnc(NC[C@@H]3C[C@@H](CO)N(Cc4ccccc4)C3)c12    0.832
2. O=C(c1cc(C(=O)N2CCN(c3ccccn3)CC2)ccc1Cl)c1c[nH]c2ncnc(N[C@@H]3CC[C@@H](CO)OC3)c12    0.664
3. CS(=O)(=O)N1C[C@H](Nc2ncnc3[nH]cc(C(=O)c4ccc(Oc5ccccc5)cc4Cl)c23)C[C@H]1CO    0.254
4. COc1ccccc1C(=O)NCc1ccc(C(=O)c2c[nH]c3ncnc(N[C@@H]4CC[C@@H](CO)OC4)c23)cc1    0.497
5. COCCOc1ccc(Cl)c(C(=O)c2c[nH]c3ncnc(N[C@@H]4CC[C@@H](CO)OC4)c23)c1    0.81
6. CC#CC(=O)N1CCCC1CNc1ncnc2[nH]cc(C(=O)c3ccc(Oc4ccccc4)cc3Cl)c12 (racemic) [Compound I-328r]    0.0184
7. N#Cc1cccc(NC(=O)c2ccc(C(=O)c3c[nH]c4ncnc(N[C@@H]5CC[C@@H](CO)OC5)c34)c(Cl)c2)c1    0.228
8. CNC(=O)c1ccc(Oc2ccc(C(=O)c3c[nH]c4ncnc(N[C@@H]5CC[C@@H](CO)OC5)c34)c(Cl)c2)cn1    0.23
9. O=C(Nc1ccccc1)c1ccc(C(=O)c2c[nH]c3ncnc(N[C@@H]4CC[C@@H](CO)OC4)c23)cc1    0.248

[I] O=C(Cc1ccccc1)Nc1ccc(Cl)c(C(=O)c2c[nH]c3ncnc(N[C@@H]4CC[C@@H](CO)OC4)c23)c1
[II] O=C(NCc1ccccc1)c1ccc(Cl)c(C(=O)c2c[nH]c3ncnc(N[C@@H]4CC[C@@H](CO)OC4)c23)c1
[III] O=C(NCCN1CCOCC1)c1ccc(Cl)c(C(=O)c2c[nH]c3ncnc(N[C@@H]4CC[C@@H](CO)OC4)c23)c1
[ask] Arrange by IC50, high to low. Please list the labels according to the requested order.
[reply] III, I, II

----------
experimental-system: full-length activated BTK (wildtype) (Homo sapiens (Human), UniProt Q06187)
Sequence (Q06187 whole entry): as the sequence (Q06187 whole entry C481S) above, with S481C counted along it
assay-notes: AlphaScreen assay, wild-type BTK
Type: biochemical
assay-setup: read-out: BTK % @ 10 uM, @ 10 uM
experimental-readout: inhibition at 10 µM (%)

1. COCCNC(=O)c1ccc(C(=O)c2c[nH]c3ncnc(N[C@@H]4CC[C@@H](CO)OC4)c23)cc1    62
2. Cn1cc(NC(=O)c2cccc(C(=O)c3c[nH]c4ncnc(N[C@@H]5CC[C@@H](CO)OC5)c34)c2)cn1    63
3. COCCNC(=O)c1cccc(C(=O)c2c[nH]c3ncnc(N[C@@H]4CC[C@@H](CO)OC4)c23)c1    76
4. O=C(c1ccc(C(=O)N2CCOCC2)cc1)c1c[nH]c2ncnc(N[C@@H]3CC[C@@H](CO)OC3)c12    84
5. Cn1cc(NC(=O)c2ccc(C(=O)c3c[nH]c4ncnc(N[C@@H]5CC[C@@H](CO)OC5)c34)cc2)cn1    77
6. O=C(c1cccc(C(=O)N2CCOCC2)c1)c1c[nH]c2ncnc(N[C@@H]3CC[C@@H](CO)OC3)c12    73

----------
experimental-system: full-length activated BTK mutant C481S (Homo sapiens (Human), UniProt Q06187, C481S)
assay-notes: AlphaScreen assay, BTK mutant C481S
Type: biochemical
assay-setup: read-out: BTK-C481S % @ 10 uM, @ 10 uM
Protocol: The activated BTK was frozen in 50 μl aliquots (125-150 μg/ml). BTK activity was assayed using a PLCγ2-derived biotinylated peptide substrate (biotin-[…]-OH) and AlphaScreen™ (Amplified Luminescent Proximity Homogeneous Assay) technology. The extent of peptide phosphorylation was determined by using acceptor beads conjugated to phosphotyrosine antibody that recognized the phosphorylated peptide and donor beads conjugated to streptavidin that binds to the biotin on the peptide. […]
experimental-readout: inhibition at 10 µM (%)

Below, 3 molecules whose answers are already recorded.
1. Cn1cc(NC(=O)c2ccc(C(=O)c3c[nH]c4ncnc(N[C@@H]5CC[C@@H](CO)OC5)c34)cc2)cn1 [Compound I-633]    50
2. O=C(NCCN1CCOCC1)c1ccc(C(=O)c2c[nH]c3ncnc(N[C@@H]4CC[C@@H](CO)OC4)c23)c(Cl)c1 [Compound I-613]    64
3. O=C(c1ccc(C(=O)N2CCOCC2)cc1)c1c[nH]c2ncnc(N[C@@H]3CC[C@@H](CO)OC3)c12 [Compound I-632]    66

[a] O=C(c1cccc(C(=O)N2CCOCC2)c1)c1c[nH]c2ncnc(N[C@@H]3CC[C@@H](CO)OC3)c12 [Compound I-635]
[b] O=C(NC1CC2(COC2)C1)c1ccc(C(=O)c2c[nH]c3ncnc(N[C@@H]4CC[C@@H](CO)OC4)c23)c(Cl)c1 [Compound I-621]
[ask] Identify the item whose inhibition at 10 µM is the smaller number: a or b Please respond with the label that marks your chosen entry.
[reply] a
